target: HCV NS3/NS4a serine protease (Hepatitis C virus genotype 1b); construct: amino terminus of the NS3 protease domain (amino acids 3-181) with a tetrapeptide linker; made in house; host or cells: E. coli; experiment: Spectrophotometric assay for HCV protease inhibitory activity (chromogenic ester substrates); type: biochemical, hepatitis C virus (strain 1b); settings: Ki, Table 3; rating; single chain NS4A21-32-GSGS-NS3 3-181 protease, 30° C., pH 6.5
Sequence (P26663 1013-1207, looked up, natural form): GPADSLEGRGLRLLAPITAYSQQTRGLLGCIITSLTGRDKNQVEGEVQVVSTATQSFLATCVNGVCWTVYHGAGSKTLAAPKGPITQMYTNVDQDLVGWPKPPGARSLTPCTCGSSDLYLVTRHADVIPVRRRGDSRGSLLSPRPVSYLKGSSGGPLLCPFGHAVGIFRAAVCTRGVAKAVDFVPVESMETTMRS
Overview of recorded Ki for various compounds

compound	Ki
CCc1ccc(CCNC(=O)[C@H](CC(F)F)NC(=O)[C@@H]2[C@@H]3[C@H](CN2C(=O)[C@@H](NC(=O)N[C@H](CN(C)S(C)(=O)=O)C(C)(C)C)C(C)(C)C)C3(C)C)cc1 [Example 268]	< 100 nM
CN(C[C@@H](NC(=O)N[C@H](C(=O)N1C[C@H]2[C@@H]([C@H]1C(=O)N[C@@H](CC(F)F)C(=O)NCCc1ccc(N)cc1)C2(C)C)C(C)(C)C)C(C)(C)C)S(C)(=O)=O [Example 262]	< 100 nM
CN(C[C@@H](NC(=O)N[C@H](C(=O)N1C[C@H]2[C@@H]([C@H]1C(=O)N[C@@H](CC(F)F)C(=O)NCCS(=O)(=O)C(C)(C)C)C2(C)C)C(C)(C)C)C(C)(C)C)S(C)(=O)=O [Example 253]	> 500 nM
CN(C[C@@H](NC(=O)N[C@H](C(=O)N1C[C@H]2[C@@H]([C@H]1C(=O)N[C@@H](CC(F)F)C(=O)NCCc1c(F)cccc1F)C2(C)C)C(C)(C)C)C(C)(C)C)S(C)(=O)=O [Example 306]	< 100 nM
CN(C[C@@H](NC(=O)N[C@H](C(=O)N1C[C@H]2[C@@H]([C@H]1C(=O)N[C@@H](CC(F)F)C(=O)NCCCc1ccccc1)C2(C)C)C(C)(C)C)C(C)(C)C)S(C)(=O)=O [Example 220]	> 500 nM
COc1ccc(CCNC(=O)[C@H](CC(F)F)NC(=O)[C@@H]2[C@@H]3[C@H](CN2C(=O)[C@@H](NC(=O)N[C@H](CN(C)S(C)(=O)=O)C(C)(C)C)C(C)(C)C)C3(C)C)cc1O [Example 295]	< 100 nM
Cc1ccc(CCNC(=O)[C@H](CC(F)F)NC(=O)[C@@H]2[C@@H]3[C@H](CN2C(=O)[C@@H](NC(=O)N[C@H](CN(C)S(C)(=O)=O)C(C)(C)C)C(C)(C)C)C3(C)C)cc1 [Example 261]	< 100 nM

====

molecular target: HCV NS3/NS4a serine protease (Hepatitis C virus genotype 1b); construct: amino terminus of the NS3 protease domain (amino acids 3-181) with a tetrapeptide linker; made in house; host or cells: E. coli; experiment: Spectrophotometric assay for HCV protease inhibitory activity (chromogenic ester substrates); assay type: biochemical, hepatitis C virus (strain 1b); conditions: Ki Rating, Table 2; single chain NS4A21-32-GSGS-NS3 3-181 protease, 30° C., pH 6.5
pKi: −log10 of the molar value. *1 amine or outer side, *2 acyl side, *3 side chain or, on linkers, in order; H or OH if unused. Where a SMILES comes first, the peptide text is derived from it. [ ]: non-standard residue; d: D form. The star is where a group is joined. Pro(3R,4S-CMe2) = CC1(C)[C@@H]2[C@@H](C(=O)O)NC[C@@H]21; Abu(4,4-F2) = N[C@@H](CC(F)F)C(=O)O; Phg = N[C@H](C(=O)O)c1ccccc1; Tle = CC(C)(C)[C@H](N)C(=O)O; CO = O=C([*:1])[*:2]; NHtBu = CC(C)(C)N*
Quick list: pKi per entry.

compound	target.or.test.system	pKi
COC(=O)c1ccc(CCNC(=O)[C@H](CC(F)F)NC(=O)[C@@H]2[C@@H]3[C@H](CN2C(=O)[C@@H](NC(=O)N[C@H](C(=O)OC(C)(C)C)C(C)(C)C)C(C)(C)C)C3(C)C)cc1	HCV NS3/NS4a serine protease (Hepatitis C virus genotype 1b)	6.30 to 7.00
COC(=O)c1ccc(CCNC(=O)C(CC(F)F)NC(=O)[C@@H]2[C@@H]3[C@H](CN2C(=O)[C@@H](NC(=O)N[C@H](C(=O)OC(C)(C)C)C(C)C)C(C)(C)C)C3(C)C)cc1 (some centres unmarked) [Example 138]	HCV NS3/NS4a serine protease (Hepatitis C virus genotype 1b)	6.30 to 7.00
CN(C[C@@H](NC(=O)N[C@H](C(=O)N1C[C@H]2[C@@H]([C@H]1C(=O)NC(CC(F)F)C(=O)NCCc1ccc(C(N)=O)cc1)C2(C)C)C(C)(C)C)C(C)(C)C)S(C)(=O)=O (some centres unmarked)	HCV NS3/NS4a serine protease (Hepatitis C virus genotype 1b)	6.30 to 7.00
CN(C)C(=O)[C@@H](NC(=O)CNC(=O)[C@H](CC(F)F)NC(=O)[C@@H]1[C@@H]2[C@H](CN1C(=O)[C@@H](NC(=O)NC(C)(C)C)C(C)(C)C)C2(C)C)c1ccccc1 [Example 166] ({NHtBu-CO}-[Tle][Pro(3R,4S-CMe2)][Abu(4,4-F2)]G[Phg]-NMe2)	HCV NS3/NS4a serine protease (Hepatitis C virus genotype 1b)	< 6.30
COC(=O)c1ccc(CCNC(=O)[C@H](CC(F)F)NC(=O)[C@@H]2[C@@H]3[C@H](CN2C(=O)[C@@H](NC(=O)N[C@H](CNS(=O)(=O)c2ccccc2)C(C)C)C(C)(C)C)C3(C)C)cc1	HCV NS3/NS4a serine protease (Hepatitis C virus genotype 1b)	6.30 to 7.00
CC(C)[C@H](NC(=O)N[C@H](C(=O)N1C[C@H]2[C@@H]([C@H]1C(=O)NC(CC(F)F)C(=O)NCCc1ccc(C(=O)O)cc1)C2(C)C)C(C)(C)C)C(=O)O (some centres unmarked)	HCV NS3/NS4a serine protease (Hepatitis C virus genotype 1b)	< 6.30
COC(=O)[C@H](CC(F)F)NC(=O)[C@@H]1[C@H]2CC(C)(C)O[C@H]2CN1C(=O)[C@@H](NC(=O)OCc1ccccc1)C1CCCCC1	HCV NS3/NS4a serine protease (Hepatitis C virus genotype 1b)	< 6.30
CC(C)(C)OC(=O)N[C@H](C(=O)N1C[C@H]2[C@@H]([C@H]1C(=O)N[C@@H](CC(F)F)C(=O)NCCC(=O)O)C2(C)C)C(C)(C)C	HCV NS3/NS4a serine protease (Hepatitis C virus genotype 1b)	< 6.30
CC1(NC(=O)N[C@H](C(=O)N2C[C@H]3[C@@H]([C@H]2C(=O)NC(CC(F)F)C(=O)NCCc2ccccc2)C3(C)C)C(C)(C)C)CCCCC1 (some centres unmarked)	HCV NS3/NS4a serine protease (Hepatitis C virus genotype 1b)	< 6.30
CC(C)[C@H](NC(=O)N[C@H](C(=O)N1C[C@H]2[C@@H]([C@H]1C(=O)N[C@@H](CC(F)F)C(=O)NCCc1ccc(C(N)=O)cc1)C2(C)C)C(C)(C)C)C(N)=O	HCV NS3/NS4a serine protease (Hepatitis C virus genotype 1b)	6.30 to 7.00
CC(C)[C@H](NC(=O)N[C@H](C(=O)N1C[C@H]2[C@@H]([C@H]1C(=O)NC(CC(F)F)C(=O)NCCc1ccc(C(=O)O)cc1)C2(C)C)C(C)(C)C)C(=O)OC(C)(C)C (some centres unmarked)	HCV NS3/NS4a serine protease (Hepatitis C virus genotype 1b)	6.30 to 7.00
CC(C)[C@H](NC(=O)N[C@H](C(=O)N1C[C@H]2[C@@H]([C@H]1C(=O)N[C@@H](CC(F)F)C(=O)NCCc1ccc(C(=O)O)cc1)C2(C)C)C(C)(C)C)C(=O)c1ccccc1	HCV NS3/NS4a serine protease (Hepatitis C virus genotype 1b)	6.30 to 7.00
CC(C)[C@H](NC(=O)N[C@H](C(=O)N1C[C@H]2[C@@H]([C@H]1C(=O)N[C@@H](CC(F)F)C(=O)NCCc1ccc(C(N)=O)cc1)C2(C)C)C(C)(C)C)C(=O)OC(C)(C)C	HCV NS3/NS4a serine protease (Hepatitis C virus genotype 1b)	6.30 to 7.00
CC(C)[C@H](NC(=O)N[C@H](C(=O)N1C[C@H]2[C@@H]([C@H]1C(=O)NC(CC(F)F)C(=O)NCCc1ccccc1Cl)C2(C)C)C(C)(C)C)C(=O)OC(C)(C)C (some centres unmarked)	HCV NS3/NS4a serine protease (Hepatitis C virus genotype 1b)	< 6.30
COC(=O)c1ccc(CCNC(=O)[C@H](CC(F)F)NC(=O)[C@@H]2[C@H]3CC(C)(C)O[C@H]3CN2C(=O)[C@@H](NC(=O)OCc2ccccc2)C2CCCCC2)cc1	HCV NS3/NS4a serine protease (Hepatitis C virus genotype 1b)	< 6.30
CC1(C)C[C@H]2[C@H](CN(C(=O)[C@@H](NC(=O)OCc3ccccc3)C3CCCCC3)[C@@H]2C(=O)N[C@@H](CC(F)F)C(=O)NCCc2ccccc2)O1	HCV NS3/NS4a serine protease (Hepatitis C virus genotype 1b)	< 6.30
CCOC(=O)CCNC(=O)[C@H](CC(F)F)NC(=O)[C@@H]1[C@@H]2[C@H](CN1C(=O)[C@@H](NC(=O)OC(C)(C)C)C(C)(C)C)C2(C)C	HCV NS3/NS4a serine protease (Hepatitis C virus genotype 1b)	< 6.30
CC(C)[C@H](NC(=O)N[C@H](C(=O)N1C[C@@H]2OC(C)(C)C[C@@H]2[C@H]1C(=O)N[C@@H](CC(F)F)C(=O)NCCc1ccccc1)C1CCCCC1)C(=O)OC(C)(C)C	HCV NS3/NS4a serine protease (Hepatitis C virus genotype 1b)	< 6.30
CC(C)(C)OC(=O)N[C@H](C(=O)N1C[C@H]2[C@@H]([C@H]1C(=O)NC(CC(F)F)C(=O)NCCc1ccccc1)C2(C)C)C(C)(C)C (some centres unmarked)	HCV NS3/NS4a serine protease (Hepatitis C virus genotype 1b)	< 6.30
COC(=O)c1ccc(CCNC(=O)[C@H](CC(F)F)NC(=O)[C@@H]2[C@H]3CC(C)(C)O[C@H]3CN2C(=O)[C@@H](NC(=O)N[C@H](C(=O)OC(C)(C)C)C(C)C)C2CCCCC2)cc1	HCV NS3/NS4a serine protease (Hepatitis C virus genotype 1b)	< 6.30
